target entity: Thyroid hormone receptor alpha (Homo sapiens, UniProt P10827)
Sequence (P10827 whole entry): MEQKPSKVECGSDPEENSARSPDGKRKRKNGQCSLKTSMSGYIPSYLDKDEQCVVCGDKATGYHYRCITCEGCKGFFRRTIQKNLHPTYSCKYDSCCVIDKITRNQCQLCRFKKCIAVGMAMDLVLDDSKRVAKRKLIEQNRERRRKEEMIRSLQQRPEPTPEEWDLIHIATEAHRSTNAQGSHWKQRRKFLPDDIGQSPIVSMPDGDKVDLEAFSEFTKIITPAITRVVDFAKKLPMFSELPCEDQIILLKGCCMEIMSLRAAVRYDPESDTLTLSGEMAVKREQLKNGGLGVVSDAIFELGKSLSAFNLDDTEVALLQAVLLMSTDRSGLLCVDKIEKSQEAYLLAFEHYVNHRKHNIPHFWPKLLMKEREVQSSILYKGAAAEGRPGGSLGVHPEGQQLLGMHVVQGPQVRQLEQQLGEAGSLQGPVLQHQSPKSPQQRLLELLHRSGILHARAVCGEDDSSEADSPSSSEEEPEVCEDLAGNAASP
test protocol: Agonist activity at wild type human TR alpha LBD expressed in Escherichia coli BL21 (DE3) assessed as induction of N-terminal biotinylated coactivator SRC2-3 peptide recruitment by alphascreen assay
outcome measure: log10 of EC50 (log10 of the value in nM)
Log scale reminder: EC50 in nM, then log10 taken.

Per the records, this compound ( COc1nc(C(=O)NCC(=O)O)c(O)c2ccc(Oc3ccc(-c4ccccc4)cc3)cc12 ) has log10 of EC50 equal to 1.59

Per the records, this compound ( COc1nc(C(=O)NCC(=O)O)c(O)c2ccc(Oc3ccccc3)cc12 ) has log10 of EC50 equal to 0.95

Per the records, this compound ( CN(C)Cc1nc(C(=O)NCC(=O)O)c(O)c2ccc(Oc3ccccc3)cc12 ) has log10 of EC50 equal to 2.48

Per the records, this compound ( Cc1nc(C(=O)NCC(=O)O)c(O)c2ccc(Oc3ccccc3)cc12 [ROXADUSTAT] ) has log10 of EC50 equal to 1.51

Per the records, this compound ( COc1nc(C(=O)NCC(=O)O)c(O)c2ccc(Oc3c(C)cc(Cc4ccccc4)cc3C)cc12 ) has log10 of EC50 equal to 1.25

Per the records, this compound ( COCCOc1nc(C(=O)NCC(=O)O)c(O)c2ccc(Oc3ccccc3)cc12 ) has log10 of EC50 equal to 2.43

Per the records, this compound ( O=C(O)CNC(=O)c1nc(OC2CCC2)c2cc(Oc3ccccc3)ccc2c1O ) has log10 of EC50 equal to 1.84

Per the records, this compound ( COc1nc(C(=O)NCC(=O)O)c(O)c2ccc(Oc3ccc(C(C)(C)c4ccccc4)cc3)cc12 ) has log10 of EC50 equal to 1.56

Per the records, this compound ( COc1nc(C(=O)NCC(=O)O)c(O)c2ccc(Oc3ccc(C(=O)c4ccccc4)cc3)cc12 ) has log10 of EC50 equal to 1.52

Per the records, this compound ( O=C(O)CNC(=O)c1nc(Cl)c2cc(Oc3ccccc3)ccc2c1O ) has log10 of EC50 equal to 1.47

Where these numbers come from: ChEMBL document CHEMBL5154903
